system-name: UniProtKB Q92769
Sequence (Q92769 whole entry): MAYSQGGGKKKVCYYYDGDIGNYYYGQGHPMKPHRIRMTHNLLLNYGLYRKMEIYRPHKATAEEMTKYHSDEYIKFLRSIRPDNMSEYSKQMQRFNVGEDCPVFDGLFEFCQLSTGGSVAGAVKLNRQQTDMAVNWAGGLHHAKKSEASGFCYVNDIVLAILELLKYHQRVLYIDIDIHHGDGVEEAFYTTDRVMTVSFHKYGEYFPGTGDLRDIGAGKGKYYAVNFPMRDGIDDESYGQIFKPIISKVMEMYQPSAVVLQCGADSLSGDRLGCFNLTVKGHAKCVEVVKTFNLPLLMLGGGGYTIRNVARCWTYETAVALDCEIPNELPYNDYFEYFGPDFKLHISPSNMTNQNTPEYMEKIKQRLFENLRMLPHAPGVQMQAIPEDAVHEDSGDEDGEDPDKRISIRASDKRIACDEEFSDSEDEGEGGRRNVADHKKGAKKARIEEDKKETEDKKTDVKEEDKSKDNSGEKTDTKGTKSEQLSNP
experiment: Inhibition of full-length recombinant human C-terminal GST tagged HDAC2 expressed in Sf9 insect cells using aminoluciferin peptide substrate at 100 nM preincubated for 3 hrs followed by substrate addition and measured after 30 mins by HDAC-Glo I/II chemiluminescence assay
condition-context: time 3.5 hrs
Cut-off 10% on inhibition, inclusive. At or above means t; below means f.

Evaluate Nc1ccc(-c2ccsc2)cc1NC(=O)CCc1cn(CC(=O)c2ccccc2)nn1 : inhibition at minimum 10%?
t

* * *

Consider the following molecules; for each one, report its inhibition.
system-name: UniProt Q92769
experiment: Inhibition of full-length recombinant human C-terminal GST tagged HDAC2 expressed in Sf9 insect cells using aminoluciferin peptide substrate at 100 nM preincubated for 3 hrs followed by substrate addition and measured after 30 mins by HDAC-Glo I/II chemiluminescence assay
condition-context: time 3.5 hrs
Answers are plain numbers, in %.

Below are worked cases with known answers.
Nc1ccc(-c2ccc(F)cc2)cc1NC(=O)c1cn(Cc2cccc(-c3ccccc3)c2)nn1: 0
Nc1ccc(-c2cccs2)cc1NC(=O)c1cccc(-c2cn(-c3ccc([N+](=O)[O-])cc3)nn2)c1: 5
Nc1ccc(-c2ccc(F)cc2)cc1NC(=O)c1cn(CCN2CCc3ccccc3C2)nn1: 22
Nc1ccc(-c2ccsc2)cc1NC(=O)c1cn(-c2ccc(Br)cc2)nn1: 0
Nc1ccc(-c2ccccc2)cc1NC(=O)c1cn(Cc2ccc3ccccc3c2)nn1: 1
COc1ccc(CCn2cc(C(=O)Nc3cc(-c4ccc(F)cc4)ccc3N)nn2)cc1: 16

Quick request: inhibition for each listed item, please.
1. Nc1ccc(-c2ccsc2)cc1NC(=O)c1cn(Cc2ccc(C(=O)O)cc2)nn1
2. Cc1csc(CCn2cc(C(=O)Nc3cc(-c4cccs4)ccc3N)nn2)n1
3. Nc1ccc(-c2cccs2)cc1NC(=O)c1cccc(-c2cn(CCN3CCOCC3)nn2)c1

1. 49
2. 15
3. 48
